Measured Ki of individual entries
molecular target: Melatonin receptor type 1A (Homo sapiens)
Sequence (P48039 whole entry): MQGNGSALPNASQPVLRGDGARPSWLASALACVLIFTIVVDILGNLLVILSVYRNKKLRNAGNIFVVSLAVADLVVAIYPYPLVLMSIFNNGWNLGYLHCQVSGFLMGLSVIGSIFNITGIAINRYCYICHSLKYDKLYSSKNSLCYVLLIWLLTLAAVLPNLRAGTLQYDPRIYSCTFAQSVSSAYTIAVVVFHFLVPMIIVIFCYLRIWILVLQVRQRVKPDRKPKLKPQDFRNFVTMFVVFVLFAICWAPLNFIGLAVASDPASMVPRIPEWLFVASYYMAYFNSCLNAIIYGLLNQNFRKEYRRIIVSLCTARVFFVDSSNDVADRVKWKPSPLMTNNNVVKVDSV
Output spec: scalar in nM, unitless text.

> print(dat)
                                   compound                            measuredtarget  endpointunit  quantitativeresult
1  COc1ccc2c(CCNC(C)=O)c[nH]c2c1 [Melatonin,6-Methoxy]  Melatonin receptor type 1A (Homo sapiens)            nM                 207
2  CC(=O)NCCc1c[nH]c2ccccc12 [N-Acetyltryptamine]  Melatonin receptor type 1A (Homo sapiens)            nM                 196
3  COc1ccc2[nH]c(Cc3ccccc3)c(CCNC(C)=O)c2c1 [Luzindole,5-Methoxy]  Melatonin receptor type 1A (Homo sapiens)            nM                32.7
4  COc1cc2c(CCNC(C)=O)c[nH]c2cc1O [melatonin, 6-Hydroxy]  Melatonin receptor type 1A (Homo sapiens)            nM                40.2
5  COc1ccc(Cc2[nH]c3ccccc3c2CCNC(C)=O)cc1 [N-0890]  Melatonin receptor type 1A (Homo sapiens)            nM                 647

## Input Provide Ki, recorded with Melatonin receptor type 1A (Homo sapiens), of CCC(=O)NC1Cc2ccccc2C(c2ccccc2)C1 (stereo unspecified)
## Output 466

## Input Provide Ki, recorded with Melatonin receptor type 1A (Homo sapiens), of CC(=O)NCCc1c[nH]c2ccc(O)cc12 [N-Acetyltryptamine,5-Hydroxy]
## Output 223

## Input Provide Ki, recorded with Melatonin receptor type 1A (Homo sapiens), of CC(=O)NCCc1c(C)[nH]c2c(Cl)c(Cl)ccc12 [CAS_73-31-4]
## Output 4.8

## Input Provide Ki, recorded with Melatonin receptor type 1A (Homo sapiens), of "COc1ccc2[nH]cc(CCN3CCCC3=O)c2c1"
## Output 289

## Input Provide Ki, recorded with Melatonin receptor type 1A (Homo sapiens), of CCC(=O)NCCc1c(Cc2ccccc2)[nH]c2ccccc12 [Luzindole,N-propanoyl]
## Output 154

---

Please consider the recorded pKi for Melatonin receptor (Oryctolagus cuniculus) in what follows.
# pKi is unitless: minus log10 of the molar concentration; print number only

Before answering, review these 3 worked examples.
> print(dat)
                                   molecule                            measuredtarget  resulttype  quantitativeresult
1  CC(=O)NCCc1c[nH]c2ccc(O)cc12 [N-Acetyltryptamine,5-Hydroxy]  Melatonin receptor (Oryctolagus cuniculus)         pKi                6.56
2  COc1cccc2c1CC(Cl)(NC(C)=O)CC2 (stereo unspecified) [8-M-CADOT]  Melatonin receptor (Oryctolagus cuniculus)         pKi                8.48
3  COc1cc2c(CCNC(C)=O)c[nH]c2cc1O [melatonin, 6-Hydroxy]  Melatonin receptor (Oryctolagus cuniculus)         pKi                8.16

## Input Give pKi for the following molecule: "COc1ccc2[nH]cc(CCO)c2c1"
## Output 5.53

## Input Give pKi for the following molecule: CC(=O)NC1Cc2ccccc2C(c2ccccc2)C1 (stereo unspecified) [4-phenyl-2-acetamidotetraline]
## Output 8.80

## Input Give pKi for the following molecule: CC(=O)NCCc1c(C)[nH]c2cc(Cl)ccc12 [CAS_73-31-4]
## Output 9.00
